- system: RSV F protein of subtype B (18537) on recombinant mKate-RSV virus (Respiratory syncytial virus subtype B …, UniProt P13843 26-574)
- protocolSummary: cell-based or functional assay
Below: a set of entries, each annotated with reported Neut IC50 (µg/ml) subtype B.

binder: ADI-18968 (antibody, V domains shown, full-length IgG from yeast) VH: EVQLVESGPGLVKPSQTLSLTCTVSDVLISSGDYYWSWIRQSPGKGLEWLGYIYYTGKTKYNPSLESRITMSVDTSKNQFSLRLSSVTAADTAVYFCTRDLGYSTSSPSFYYGMDVWGQGTTVTVSS VL: EIVLTQSPATLSLSPGERATLSCRASQSVGTYLAWYQQKPGQAPRLLIYDASYRVTGIPARFSASGSATDFTLTISSLEPEDFAVYFCQQRTNWPITFGQGTRLEIK
unitSymbol: µg/mL
ltGtEq: =
Neut IC50 (µg/ml) subtype B: 0.541
//
binder: ADI-18928 (antibody, V domains shown, full-length IgG from yeast) VH: QVQLVQSGAEVKRPGSSVRVSCKASGGTFRKYAISWVRQARGQGLEWMGGIIPMSGPPSYAQKFQGRVTITADESTSTVYMELSSLRFEDTAVYFCARDIEWFVLMDPITSYYPMDVWGQGTTVTVSS VL: QSVVTQEPSLTVSPGGTVTLTCGSSTGGVTSGHHTYWFQQKPGQAPRTLIYDTTNTHSWTPARFAGSLLGGKAALTLSGAQPEDEADYYCLLSYSGARPVFGGGTKLTVL
unitSymbol: µg/mL
ltGtEq: =
Neut IC50 (µg/ml) subtype B: 0.062
//
binder: ADI-18926 (antibody, V domains shown, full-length IgG from yeast; also called Antibody Number 280; Ab # 280) VH: EVQLVESGAEVKKPGASVKVSCQTSGYTFSHFGVTWIRQAPGQGLEWLGWISAYNGNTDYADKLQGRLTMTTDTSTNTAYMELRSLRSDDTAVYYCARDPPASAAAMLDYWGQGTLVTVSS VL: DIVMTQSPLSLAVTLGQPASISCKSSQGLEYTDGNTYLSWFQQRPGQSPRRLIYKISNRDSGVPDRFSGSGSGTDFTLRISRVEAEDVGVYYCMQGTHGRGISFGPGTKVDIK
unitSymbol: µg/mL
ltGtEq: =
Neut IC50 (µg/ml) subtype B: 0.092
//
binder: ADI-18941 (antibody, V domains shown, full-length IgG from yeast) VH: EVQLVESAAEVKKPGESLKISCKGSGYSFASHWIGWVRQMPGKGLELMGFIYPGDSDTRYNPSFQGQVTISADKSISTAYLQWTRLKASDTAMYYCGQAVAGGEYFHHWGQGTLVTVSS VL: DIVMTQSPATLSVSPGERATLSCRASQSLGSDLAWYQQKPGQTPRLLIYDASTRATGIPARFSGSGSGTEFTLTISSLQSEDFAVYYCQHYNNWPRGFGQGTKVEIK
unitSymbol: µg/mL
ltGtEq: >
Neut IC50 (µg/ml) subtype B: 10
//
binder: ADI-18916 (antibody, V domains shown, full-length IgG from yeast; also called Antibody Number 270; Ab # 270) VH: QVQLVQSGPEVKKPGESLTISCKGSGYDFSNNWIGWVRQMPGKGLEWMGIIYPGDSDTRYSPSFQGQVTLSVDKSISTAYLQWRSLKASDSGIYYCARQIGGLVCSSESCYFYGMDVWGQGTTVTVSS VL: DIRVTQSPSSLSASVGGRVTITCRASQSISNYLNWYQHKPGKAPELLIYGASSLQSGVPSRFSGSGSGTDFTLTISSLQPEDFATYYCQQSDTTPFTFGQGTKLEIK
unitSymbol: µg/mL
ltGtEq: <
Neut IC50 (µg/ml) subtype B: 0.01
//
binder: ADI-18927 (antibody, V domains shown, full-length IgG from yeast) VH: QVQLVQSGAEVKKPGASVKVSCKASGYTFTDYFIHWVRQAPGEGLEWMGWVNPLSDNTKYSQKFQGRVTMSTDTSITTAYMYLSRLRFDDTAVYFCASQSSPYTPGALDVWGQGTTVTVSS VL: DIQLTQSPSSLPASVGDRVTITCRASQNIGNNLAWYQQKAGRAPKLLIYSASNFHSGVPSRFIGSGSGTVFTLTISSLQPEDFATYFCQQSFTPQFTFGPGTKVEIK
unitSymbol: µg/mL
ltGtEq: =
Neut IC50 (µg/ml) subtype B: 0.067
//
binder: ADI-18918 (antibody, V domains shown, full-length IgG from yeast) VH: QVQLVQSGAEVKKPGESLKISCKGSGYSFSSFWIGWVRQMPGKGLEWMGIIYPGDSDTRYSPSFQGQVTMSADTSINTAYLQWNSVKASDTAIYYCARLPVGSYYYFNLWGRGTLVTVSS VL: EIVMTQSPATLSVSPGESATLFCRASQSISSDLAWYQQRPGQAPRLLIYDASTRATGVPARFSATGSEAEFTLTISGLQSEDFAVYYCQQYNNWLSWTFGQGTKLEIK
unitSymbol: µg/mL
ltGtEq: =
Neut IC50 (µg/ml) subtype B: 4.59
//
binder: ADI-18975 (antibody, V domains shown, full-length IgG from yeast; also called Antibody Number 323; Ab # 323) VH: QVQLVQSGAEVKKPGASVKVSCKASGYTFVHYGISWVRQAPGQGLEWMGWISAYNGNTNSALKFQDRVTMTTDPSTSTAYMELRSLRSDDTAIYYCARDSGCCSGSTSDVWGKGTTVTVSS VL: DIVMTQSPLSSPVTLGQPASISCRSSQSLVHSDGNTYLSWLHQRPGQPPRLLIYKISHRFSGVPDRFTGSGAGTDFTLKISRVEAEDVGVYYCMQATEFPPMYTFGQGTKVEIK
unitSymbol: µg/mL
ltGtEq: =
Neut IC50 (µg/ml) subtype B: 0.174
//
binder: ADI-18924 (antibody, V domains shown, full-length IgG from yeast) VH: QVQLVQSGAEVKKPGESLKISCQGSGYSFSSFWIVWVRQMPGKGLEWMGSIYPGDSDTRYTPSFQGQVTISADKSTSTAYLQWNSLKPSDTAMYYCARCSLSCDYYGVNLWGQGTTVTVSS VL: QSVVTQPPSVSGAPGQRVTISCSGSSSNIGARSDVHWYQQLPGKAPKLLIYGNTNRPLGVPDRFSGSTSGTSASLAISGLQAEDEGYYYCQSYDSSLSGFYVFGTGTKLTVL
unitSymbol: µg/mL
ltGtEq: =
Neut IC50 (µg/ml) subtype B: 1.07
//
binder: ADI-18913 (antibody, V domains shown, full-length IgG from yeast) VH: QVQLVQSGPEVKKPGESLTISCKGSGYDFSNNWIGWVRQMPGKGLEWMGIIYPGDSDTRYSPSFQGQVTLSVDKSISTAYLQWRSLKASDSGIYYCARQIGGLVCSSESCYFYGMDVWGQGTTVTVSS VL: DIQLTQSPSSLSASVGGRVTITCRASQSISNYLNWYQHKPGKAPELLIYGASSLQSGVPSRFSGSGSGTDFTLTISSLQPEDFATYYCQQSDTTPFTFGQGTKVDIK
unitSymbol: µg/mL
ltGtEq: <
Neut IC50 (µg/ml) subtype B: 0.01

Taken from patent US20200223906A1.
